Molecular target: T1, human [1-305]-mouse chimeric EL (human; mouse, UniProt Q9WVG5 306-500)
T1 construct: Heparin extract, captured or detected by an anti-C2-tag antibody; also called human-mouse chimeric EL
T1 sequence: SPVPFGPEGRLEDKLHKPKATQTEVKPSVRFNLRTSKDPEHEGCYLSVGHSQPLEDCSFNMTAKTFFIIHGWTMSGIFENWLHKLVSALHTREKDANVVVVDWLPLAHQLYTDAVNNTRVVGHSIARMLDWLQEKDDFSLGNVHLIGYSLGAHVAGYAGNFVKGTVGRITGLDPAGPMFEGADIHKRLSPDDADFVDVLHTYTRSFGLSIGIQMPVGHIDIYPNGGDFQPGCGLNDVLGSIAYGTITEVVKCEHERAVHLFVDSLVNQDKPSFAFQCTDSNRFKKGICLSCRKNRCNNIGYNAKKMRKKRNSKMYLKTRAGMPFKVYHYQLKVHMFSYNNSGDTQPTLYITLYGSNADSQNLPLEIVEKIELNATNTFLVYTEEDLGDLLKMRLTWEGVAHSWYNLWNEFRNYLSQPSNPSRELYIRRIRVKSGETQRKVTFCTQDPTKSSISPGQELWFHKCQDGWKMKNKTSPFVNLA
Assay: Biacore; EL captured by anti-C2-tag Ab; bivalent fit
Respond with satisfied for kon values of 100000 M⁻¹ s⁻¹ and above, not satisfied for values below.

Ask | Form field: kon at least 100000 M⁻¹ s⁻¹? Entry: h55A1-S4 (antibody, V domains shown, humanized) VH: QVQLVQSGSELKKPGASVKVSCKASGYTFTNYAMNWVRQAPGQGLEWMGWINTYSGVGTYAGDFKGRFVFSLDTSVSTAYLQISSLKAEDTAVYYCARRGFYGRRFFDVWGKGTTVTVSS VL: DIVLTQSPASLAVSPGQRATITCKASQSVDYDVDSYMHWYQQKPGQPPKLLIYAASNLASGVPARFSGSGSGTDFTLTINPVEANDTANYYCQQTIEDPPTFGGGTKVEIK
Reply | not satisfied

Ask | Form field: kon at least 100000 M⁻¹ s⁻¹? Entry: h16B3-S7 (antibody, V domains shown, humanized) VH: EVQLVESGGGLVQPGGSLRLSCAASGFTFSAYTMSWVRQAPGKGLEWVSDISFARDRAFYPDTVKGRFTISRDNSKNTLYLQMNSLRAEDTAVYYCARLGGKNRDFWYFDLWGQGTTVTVSS VL: DIVMTQSPDSLAVSLGERATINCRASESVEYYGTSLMQWYQQKPGQPPKLLIYAASNVESGVPDRFSGSGSGTDFTLTISSLQAEDVAVYYCQQSWKVPFTFGQGTKLEIK
Reply | not satisfied

Ask | Form field: kon at least 100000 M⁻¹ s⁻¹? Entry: h55A1-S3 (antibody, V domains shown, humanized) VH: QVQLVQSGSELKKPGASVKVSCKASGYTFTNYGLNWVRQAPGQGLEWMGWINTYSGVPTYAGDFKGRFVFSLDTSVSTAYLQISSLKAEDTAVYYCARRGYYGRRFFDVWGKGTTVTVSS VL: DIVLTQSPASLAVSPGQRATITCKASQSVDYDVDSYMHWYQQKPGQPPKLLIYAASNLASGVPARFSGSGSGTDFTLTINPVEANDTANYYCQNTIEDPPTFGGGTKVEIK
Reply | satisfied

Ask | Form field: kon at least 100000 M⁻¹ s⁻¹? Entry: h55A1-S7 (antibody, V domains shown, humanized) VH: QVQLVQSGSELKKPGASVKVSCKASGYTFTNYALNWVRQAPGQGLEWMGWINTYSGVGTYAGEFKGRFVFSLDTSVSTAYLQISSLKAEDTAVYYCARRGFYGRRFFDVWGKGTTVTVSS VL: DIVLTQSPASLAVSPGQRATITCKASQSVDYDVDSYMHWYQQKPGQPPKLLIYAASNLASGVPARFSGSGSGTDFTLTINPVEANDTANYYCQNTIEDPPTFGGGTKVEIK
Reply | satisfied

Ask | Form field: kon at least 100000 M⁻¹ s⁻¹? Entry: h55A1-F2 (antibody, V domains shown, humanized) VH: QVQLVQSGAEVKKPGASVKVSCKASGYTFTNYGMNWVRQAPGQGLEWMGWINTYSGVPTYAGDFKGRVTMTTDTSTSTAYMELRSLRSDDTAVYYCARRGYYGRRYFDVWGKGTTVTVSS VL: EIVMTQSPATLSVSPGERATLSCKASQSVDYDVDSYMHWYQQKPGQAPRLLIYAASNLASGIPARFSGSGSGTEFTLTISSLQSEDFAVYYCQQTIEDPPTFGGGTKVEIK
Reply | satisfied
